Test system: EKVX
Assay: NCI tumour cell line growth inhibition, 48 h
The source made the active and inactive calls. No stated cut-off is given here; in the data, active = GI50 up to about 1.1 µM and inactive = higher.
Kindly state GI50 for each of the entries shown.

Query string: Quote GI50 reported for C[S+]([O-])c1ccc(COP(N)(=O)N(CCCl)CCCl)cc1 (centres undefined) please.
Result string: > 100 µM (inactive)

Query string: Quote GI50 reported for CC(=O)O[C@H]1C[C@@H](OC(C)=O)[C@@](C)(O)[C@@H]2[C@@H](OC(C)=O)[C@@]3(O)[C@H](/C=C(/CO)[C@H]4O[C@H]4[C@@H](OC(C)=O)[C@@]12C)OC(=O)[C@@H]3C please.
Result string: > 25 µM (inactive)

Query string: Quote GI50 reported for CSCC(CO)NC(=O)/C=C/c1c(C)[nH]c(=O)[nH]c1=O (centres undefined) please.
Result string: 454 µM (inactive)

Query string: Quote GI50 reported for N=c1c2c(=S)n(-c3ccccc3)c(=S)n(-c3ccccc3)c2nc(SCCCN2CCN(c3cccc(Cl)c3)CC2)n1-c1ccccc1 please.
Result string: > 100 µM (inactive)

Query string: Quote GI50 reported for CCCCc1nc(C)oc1C(C)C please.
Result string: > 100 µM (inactive)

Query string: Quote GI50 reported for N#CC1C(=O)NC23CCCCC2C1c1ccccc1O3 (centres undefined) please.
Result string: > 100 µM (inactive)

Query string: Quote GI50 reported for C=CCCc1cc(OC)ccc1CN(C)C(C)(C)CO please.
Result string: > 100 µM (inactive)

Query string: Quote GI50 reported for CC(=O)C1=CSC2[C@H](NC(=O)Cc3ccccc3)C(=O)N2C1C(=O)OC(c1ccccc1)c1ccccc1 (some centres undefined) please.
Result string: > 100 µM (inactive)

Query string: Quote GI50 reported for OC[C@H]1N[C@H](CO)[C@@H](O)[C@H]1O please.
Result string: > 100 µM (inactive)

Query string: Quote GI50 reported for COc1cc2c(cc1OC)C(=O)/C(=C/c1cc(C)cc(C)c1)C2 please.
Result string: 1.29 µM (inactive)

Query string: Quote GI50 reported for NS(=O)(=O)c1nnc(/N=C(/CCC(=O)O)C(=O)O)s1 please.
Result string: > 100 µM (inactive)

Query string: Quote GI50 reported for Cc1nc(N)c(N2CCN(C#N)CC2)c(O)n1 please.
Result string: > 100 µM (inactive)

Query string: Quote GI50 reported for O=c1[nH]nc2ccccc2c1Cl please.
Result string: 4.29 µM (inactive)

Query string: Quote GI50 reported for CCO/N=C\c1ccc2oc(-c3ccccc3)cc(=O)c2c1 please.
Result string: 3.03 µM (inactive)

Query string: Quote GI50 reported for CN(CCNC(=O)c1cc(-c2ccccc2)nc2ccccc12)CCNC(=O)c1cc(-c2ccccc2)nc2ccccc12 please.
Result string: 15.9 µM (inactive)

Query string: Quote GI50 reported for CC1=NN(C(=O)c2ccc(Cl)cc2)C(=O)/C1=C/c1ccc(Cl)cc1 please.
Result string: > 100 µM (inactive)

Query string: Quote GI50 reported for CCOC(=O)c1c(N2CCOCC2)[nH]c(=O)c(C(c2ccc(N(C)C)cc2)c2c(O)c(C(=O)OCC)c(N3CCOCC3)[nH]c2=O)c1O please.
Result string: > 100 µM (inactive)

Query string: Quote GI50 reported for O=C1C[C@@H]2CCCC[C@@H]2C12SCCS2 please.
Result string: > 100 µM (inactive)

Query string: Quote GI50 reported for CC[C@H](C)C(=O)O[C@H]1CCC=C2C=C[C@H](C)[C@H](CC[C@@H]3C[C@@H](O)CC(=O)O3)[C@H]21 please.
Result string: > 38.9 µM (inactive)

Recorded values, source ChEMBL document CHEMBL1201862.
